target: human c-Met (human, UniProt P08581 25-1390); test: cell-based or functional assay
Sequence (P08581 25-1390): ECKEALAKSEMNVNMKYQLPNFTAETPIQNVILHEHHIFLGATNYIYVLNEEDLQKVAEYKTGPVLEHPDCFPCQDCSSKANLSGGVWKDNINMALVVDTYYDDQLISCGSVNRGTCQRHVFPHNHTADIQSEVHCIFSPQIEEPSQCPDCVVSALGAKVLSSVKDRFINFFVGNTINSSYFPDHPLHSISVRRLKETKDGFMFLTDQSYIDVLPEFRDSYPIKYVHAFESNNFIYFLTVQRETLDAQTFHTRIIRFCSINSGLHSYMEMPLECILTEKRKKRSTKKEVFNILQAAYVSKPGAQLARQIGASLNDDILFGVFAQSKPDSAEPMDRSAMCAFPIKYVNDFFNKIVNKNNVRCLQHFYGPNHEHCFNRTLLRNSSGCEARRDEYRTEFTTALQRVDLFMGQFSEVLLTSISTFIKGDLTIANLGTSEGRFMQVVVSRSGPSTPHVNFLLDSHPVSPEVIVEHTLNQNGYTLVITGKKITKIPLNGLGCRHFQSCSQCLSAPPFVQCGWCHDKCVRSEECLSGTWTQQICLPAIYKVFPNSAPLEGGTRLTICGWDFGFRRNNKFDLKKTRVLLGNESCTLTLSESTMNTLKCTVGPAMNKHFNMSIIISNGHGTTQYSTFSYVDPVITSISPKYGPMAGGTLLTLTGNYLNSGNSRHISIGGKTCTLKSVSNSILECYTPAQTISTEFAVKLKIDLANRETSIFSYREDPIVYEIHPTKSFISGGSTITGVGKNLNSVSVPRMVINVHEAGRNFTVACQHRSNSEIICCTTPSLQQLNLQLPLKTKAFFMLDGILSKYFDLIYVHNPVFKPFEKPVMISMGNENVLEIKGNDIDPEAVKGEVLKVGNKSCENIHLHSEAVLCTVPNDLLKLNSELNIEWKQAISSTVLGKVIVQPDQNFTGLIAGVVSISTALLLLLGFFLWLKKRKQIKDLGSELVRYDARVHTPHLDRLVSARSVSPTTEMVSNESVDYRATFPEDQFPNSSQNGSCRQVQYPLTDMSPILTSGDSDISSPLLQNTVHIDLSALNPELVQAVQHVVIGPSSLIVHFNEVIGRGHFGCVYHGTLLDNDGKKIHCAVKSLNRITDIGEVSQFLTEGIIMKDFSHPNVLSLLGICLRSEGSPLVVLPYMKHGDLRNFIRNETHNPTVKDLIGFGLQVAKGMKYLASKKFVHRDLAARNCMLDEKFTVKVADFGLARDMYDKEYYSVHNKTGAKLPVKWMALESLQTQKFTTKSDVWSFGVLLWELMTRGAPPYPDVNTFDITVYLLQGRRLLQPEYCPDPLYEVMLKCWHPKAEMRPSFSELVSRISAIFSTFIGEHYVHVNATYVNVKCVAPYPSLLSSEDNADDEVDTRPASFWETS
Readings of AVG CPM, 3H-thymidine incorporation in MKN45 cells, Ab 20000.0 ng/mL for the listed binders
Express your answer in CPM, writing the number without its unit.

| binder | unit-tag | obs-value |
| --- | --- | --- |
| D11-C27G3 (antibody, human IgG2, kappa, V domains shown, Human engineered IgG2 kappa c-Met antibody; also called D11-27G3; D11-C27G3 IgG2) VH: QVQLVQSGAEVKKPGSSVKVSCKASGYTFTSRYIHWVRQAPGQGLEWMGWIYPVTGDTYYREPFKGRVTITADKSTSTAYMELSSLRSEDTAVYYCARGYGAFYYWGQGTLVTVSS VL: EIVLTQSPGTLSLSPGERATLSCSVSSSISSTNLHWYQQKPGQAPRLLIYGTSRLRSGIPDRFSGSGSGTDFTLTISRLEPEDFAVYYCQQWSSYPYSFGQGTKLEIKR | CPM | 18400 |

IN: Provide measured AVG CPM, 3H-thymidine incorporation in MKN45 cells, Ab 20000.0 ng/mL value, entry: D11-8B8 (antibody, human IgG2, kappa, V domains shown, Human engineered IgG2 kappa c-Met antibody; also called Mab D11-8B8; D11-8B8 IgG2) VH: QVQLVQSGAEVKKPGSSVKVSCKASGYTFTSRYIHWVRQAPGQGLEWMGWIYPVTGDTYYIEKFKGRVTITADKSTSTAYMELSSLRSEDTAVYYCARGYGAFFYWGQGTLVTVSS VL: EIVLTQSPGTLSLSPGERATLSCSVSSSISSTNLHWYQQKPGQAPRLLIYGTSYLASGIPDRFSGSGSGTDFTLTISRLEPEDFAVYYCQQWSSYPYSFGQGTKLEIKR
OUT: 11200

IN: Give the reported AVG CPM, 3H-thymidine incorporation in MKN45 cells, Ab 20000.0 ng/mL for this binder. D11-S17Y (antibody, human IgG2, kappa, V domains shown, Human engineered IgG2 kappa c-Met antibody; also called D11-S17Y IgG2) VH: QVQLVQSGAEVKKPGSSVKVSCKASGYTFTSRYIHWVRQAPGQGLEWMGWIYPVTGDTYYNEKFKGRVTITADKSTSTAYMELSSLRSEDTAVYYCARGYGAFYYWGQGTLVTVSS VL: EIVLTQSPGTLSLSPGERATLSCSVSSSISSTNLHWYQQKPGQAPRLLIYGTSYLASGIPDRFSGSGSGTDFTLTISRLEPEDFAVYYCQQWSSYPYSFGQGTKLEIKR
OUT: 19800

IN: Please report the measured AVG CPM, 3H-thymidine incorporation in MKN45 cells, Ab 20000.0 ng/mL for C8-co-16 (antibody, human IgG2, kappa, V domains shown, Named IgG4 kappa; also called C8-co-16 IgG4) VH: QVQLVQSGAEVKKPGASVKVSCKASGYTFTDYYMHWVRQAPGQGLEWMGRVNPYRGSTTYNQKFEGRVTMTTDTSTSTAYMELRSLRSDDTAVYYCARANILDYWGQGTTVTVSS VL: DIQMTQSPSSLSASVGDRVTITCSVSSSVRSIYLHWYQQKPGKAPKLLIYSTSNLASGVPSRFSGSGSGTDFTLTISSLQPEDFATYYCQVYRGYPLTFGGGTKVEIKR
OUT: 11700
